biological target: UniProt P48736; assay: PI3Kγ inhibitory activity, PI3-kinase HTRF assay (inhibition ratio); type: biochemical; details: 0.5 h; PI3Kγ, compound at 50 μM
endpoint name: inhibition at 50 µM

>>> df
                             chemical_smiles  result_value
 0  CNC(=O)Nc1cc2n(n1)CCN2c1cc(Br)cc(C(=O)NCCOC)c1         ≥ 95%
 1        CNC(=O)Nc1cc2n(n1)CCN2c1ccc(OC)cc1           83%
 2        CNC(=O)Nc1cc2n(n1)CCN2c1cncc(OC)c1         ≥ 95%
 3  CNC(=O)Nc1cc2n(n1)CCN2c1cc(Br)cc(C(=O)N2CCCC2)c1         ≥ 95%
 4  CNC(=O)Nc1cc2n(n1)CCN2c1ccc(C(=O)OC)c(OC)c1         ≥ 95%
 5  COc1cc(N2CCc3nc(NC(=O)c4cnco4)sc3C2)nc(OC)n1           88%
 6  CNC(=O)Nc1cc2n(n1)CCN2c1cc(Br)cc(C(N)=O)c1         ≥ 95%
 7  CCOC(=O)c1cccc(N2CCn3nc(NC(=O)NC)cc32)c1         ≥ 95%
 8  CNC(=O)Nc1nc2c(s1)CN(c1cc(OC)nc(N)n1)CC2         ≥ 95%
 9  CNC(=O)Nc1nc2c(s1)CN(c1cc(Cl)nc(N)n1)CC2         ≥ 95%
10  CNC(=O)Nc1cc2n(n1)CCN2c1ccc(C(=O)N(C)C)cc1         ≥ 95%
11    CNC(=O)Nc1cc2n(n1)CCN2c1cccc(C(=O)O)c1         ≥ 95%
12  COC(=O)c1cc(N2CCc3nc(NC(=O)c4cccc(Cl)c4)sc3C2)nc(Cl)n1         ≥ 95%
13  CS(=O)(=O)Nc1ccc(CC(=O)Nc2cc3n(n2)CCN3c2cccc(Cl)c2)cc1           81%
14        CNC(=O)Nc1cc2n(n1)CCN2c1ccc(Cl)cc1         ≥ 95%
15  CNC(=O)Nc1cc2n(n1)CCN2c1cc(Nc2ccccc2)cc(C(=O)O)c1         ≥ 95%
16  CNC(=O)Nc1cc2n(n1)CCN2c1cc(C(=O)O)cc(-c2ccccc2)c1         ≥ 95%

###

molecular target: PI-3 kinase γ (Homo sapiens); test: PI3Kγ inhibitory activity, PI3-kinase HTRF assay (inhibition ratio); format: biochemical; settings: 0.5 h; PI3Kγ, compound at 50 μM
Sequence (P48736 whole entry): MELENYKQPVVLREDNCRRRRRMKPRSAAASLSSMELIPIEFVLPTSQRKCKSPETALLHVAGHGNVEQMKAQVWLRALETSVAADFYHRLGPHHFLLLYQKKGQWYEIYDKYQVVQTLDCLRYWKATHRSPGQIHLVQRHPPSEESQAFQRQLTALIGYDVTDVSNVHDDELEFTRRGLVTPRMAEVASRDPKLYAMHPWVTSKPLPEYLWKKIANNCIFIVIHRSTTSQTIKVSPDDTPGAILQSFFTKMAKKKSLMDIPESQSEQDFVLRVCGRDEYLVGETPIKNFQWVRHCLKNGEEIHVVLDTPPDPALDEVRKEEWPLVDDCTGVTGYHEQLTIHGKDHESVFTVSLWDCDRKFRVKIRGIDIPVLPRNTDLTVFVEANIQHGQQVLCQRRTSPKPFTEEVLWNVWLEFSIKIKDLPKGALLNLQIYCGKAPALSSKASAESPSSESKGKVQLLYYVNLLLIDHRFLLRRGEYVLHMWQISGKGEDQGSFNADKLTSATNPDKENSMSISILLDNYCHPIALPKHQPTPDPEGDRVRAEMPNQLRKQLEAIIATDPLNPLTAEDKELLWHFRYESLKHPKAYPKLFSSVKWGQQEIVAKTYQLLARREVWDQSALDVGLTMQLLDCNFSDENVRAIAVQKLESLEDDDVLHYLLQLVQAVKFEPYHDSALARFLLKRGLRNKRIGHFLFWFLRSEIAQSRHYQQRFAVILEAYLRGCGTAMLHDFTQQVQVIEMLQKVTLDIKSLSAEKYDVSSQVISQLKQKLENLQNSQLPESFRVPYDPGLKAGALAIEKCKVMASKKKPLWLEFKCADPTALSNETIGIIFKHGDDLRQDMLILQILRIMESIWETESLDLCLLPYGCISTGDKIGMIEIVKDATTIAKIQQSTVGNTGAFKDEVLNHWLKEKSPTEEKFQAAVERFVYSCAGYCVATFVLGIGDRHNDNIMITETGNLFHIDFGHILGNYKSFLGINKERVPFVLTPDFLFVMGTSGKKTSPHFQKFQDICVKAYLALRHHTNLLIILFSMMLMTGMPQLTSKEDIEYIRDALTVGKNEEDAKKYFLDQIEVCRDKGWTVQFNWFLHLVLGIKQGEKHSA
Listed molecules paired with reported inhibition at 50 µM
endpoint name: inhibition at 50 µM (%)

                            chemical_smiles                 tested_system        endpoint_name  censor_symbol  result_value
0  COC(=O)c1cc(N2CCc3nc(NC(C)=O)sc3C2)nc(Cl)n1  PI-3 kinase γ (Homo sapiens)  inhibition at 50 µM              ≥            95
1        CNC(=O)Nc1cc2n(n1)CCN2c1cccc(OC)c1  PI-3 kinase γ (Homo sapiens)  inhibition at 50 µM              ≥            95
2  COc1cc(N2CCc3nc(NC(=O)C(=O)c4ccccc4)sc3C2)nc(OC)n1  PI-3 kinase γ (Homo sapiens)  inhibition at 50 µM              =            89
3  COc1cc(N2CCc3nc(NC(=O)NCC(=O)O)sc3C2)nc(OC)n1  PI-3 kinase γ (Homo sapiens)  inhibition at 50 µM              =            93
4       CC(=O)Nc1cc2n(n1)CCN2C(=O)OC(C)(C)C  PI-3 kinase γ (Homo sapiens)  inhibition at 50 µM              ≥            95
